Entry source: ChEMBL document CHEMBL4261634

- test.method.notes: AUC (0 to t) in Sprague-Dawley rat at 3 mg/kg, po by LC-ESI-MS analysis
- Assay type: ADME, organism-based
- condition: in vivo
observed.property: AUC(0-t) (µg·h/mL)
The answer is to be given in µg·h/mL; state only the numeric part.

Input line: Given the compound CC#C[C@@H](CC(=O)O)c1ccc(OC[C@H]2COc3ccc(Cl)cc3O2)cc1 , what is its reported AUC(0-t)?
Output line: 140

* * *

- test.method.notes: Cmax in Sprague-Dawley rat at 10 mg/kg, po by LC-ESI-MS analysis
- Type: ADME, organism-based
- Design: dose 10 mg/kg, route oral
- condition: in vivo
Recorded Cmax by entry
The answer is to be given in ng/mL; state only the numeric part.

Below, each entry is followed by its recorded Cmax result.
# smiles.notation, Cmax, ng/mL
records = [
    ("Cc1cc(OCCCS(C)(=O)=O)cc(C)c1-c1cccc(COc2ccc3c(c2)OC[C@H]3CC(=O)O)c1", 19400),
    ("CC#C[C@@H](CC(=O)O)c1ccc(OC[C@H]2COc3ccc(C)cc3O2)cc1", 23700),
    ("CC#C[C@@H](CC(=O)O)c1ccc(OC[C@H]2COc3ccccc3O2)cc1", 36700),
]

# evaluate next
Input line: Given the molecule CC#C[C@@H](CC(=O)O)c1ccc(OC[C@H]2COc3ccc(Cl)cc3O2)cc1 , what is its reported Cmax?
Output line: 47800

* * *

- test.method.notes: Cmax in Sprague-Dawley rat at 3 mg/kg, po by LC-ESI-MS analysis
- Type: ADME, organism-based
- Parameters: dose 3 mg/kg, route oral
- condition: in vivo
observed.property: Cmax (µg/mL)
The answer is to be given in µg/mL; state only the numeric part.

Input line: Given the compound CC#C[C@@H](CC(=O)O)c1ccc(OC[C@H]2COc3ccc(Cl)cc3O2)cc1 , what is its reported Cmax?
Output line: 9.31

* * *

Recorded half-life by entry
- test.method.notes: Elimination half life in Sprague-Dawley rat at 10 mg/kg, po by LC-ESI-MS analysis
- Assay type: ADME, organism-based
- condition: in vivo, read-out: beta t1/2 (converted)
The answer is to be given in h; state only the numeric part.

Below, each entry is followed by its recorded half-life result.
# smiles.notation, observed.property, units.symbol, measured.value
data = [
    ("Cc1cc(OCCCS(C)(=O)=O)cc(C)c1-c1cccc(COc2ccc3c(c2)OC[C@H]3CC(=O)O)c1", "half-life", "h", 3.94),
    ("CC#C[C@@H](CC(=O)O)c1ccc(OC[C@H]2COc3ccccc3O2)cc1", "half-life", "h", 3.14),
    ("CC#C[C@@H](CC(=O)O)c1ccc(OC[C@H]2COc3ccc(C)cc3O2)cc1", "half-life", "h", 1.79),
]

Input line: Given the compound CC#C[C@@H](CC(=O)O)c1ccc(OC[C@H]2COc3ccc(Cl)cc3O2)cc1 , what is its reported half-life?
Output line: 25.7

* * *

- tgt: UniProt:O14842
- Sequence (O14842 whole entry): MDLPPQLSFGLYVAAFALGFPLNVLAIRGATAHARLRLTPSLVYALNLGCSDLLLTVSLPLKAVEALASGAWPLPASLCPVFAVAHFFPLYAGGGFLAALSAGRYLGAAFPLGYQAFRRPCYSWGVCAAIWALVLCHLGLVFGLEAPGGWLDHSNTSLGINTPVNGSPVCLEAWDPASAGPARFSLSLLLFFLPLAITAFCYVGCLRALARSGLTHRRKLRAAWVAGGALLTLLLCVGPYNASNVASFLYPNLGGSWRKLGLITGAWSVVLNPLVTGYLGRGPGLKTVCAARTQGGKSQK
- test.method.notes: Agonist activity at human GPR40 expressed in human HEK293 cells assessed as increase in intracellular calcium flux after 10 mins by fluorescence assay relative to linoleic acid
- Format: functional, cell-based
With a cut-off of 70%, any Emax strictly below it is called YES; any Emax meeting it or above is called NO.

# compound, label.value
rows = [
    ("CC#C[C@@H](CC(=O)O)c1ccc(OC[C@H]2COc3cc(F)c(Cl)cc3O2)cc1", "YES"),
    ("CC#C[C@@H](CC(=O)O)c1ccc(OC[C@H]2COc3ccc(S(C)(=O)=O)cc3O2)cc1", "YES"),
    ("O=C(O)CCc1ccc(OCC2COc3cc(Br)ccc3O2)cc1F (stereo not given)", "YES"),
]

Input line: Problem: For the compound CC#C[C@@H](CC(=O)O)c1ccc(OC[C@H]2COc3ccc(Cl)cc3O2)cc1 , is Emax under 70%?
Output line: NO

Input line: Problem: For the compound O=C(O)CC1(c2ccc(OCC3COc4ccc(Cl)cc4O3)cc2)COC1 (stereo not given) , is Emax under 70%?
Output line: YES

Input line: Problem: For the compound CC#C[C@@H](CC(=O)O)c1ccc(OC[C@H]2COc3ccc(C(C)=O)cc3O2)cc1 , is Emax under 70%?
Output line: YES

Input line: Problem: For the compound CC#C[C@@H](CC(=O)O)c1ccc(OC[C@H]2COc3ccc(C)cc3O2)cc1 , is Emax under 70%?
Output line: NO

Input line: Problem: For the compound CS(=O)(=O)CCCOc1ccc2c(c1)OC(COc1ccc(CCC(=O)O)c(F)c1)CC2 (stereo not given) , is Emax under 70%?
Output line: YES

Input line: Problem: For the compound CC#C[C@H](CC(=O)O)c1ccc(OC[C@@H]2COc3ccc(Cl)cc3O2)cc1 , is Emax under 70%?
Output line: YES

Input line: Problem: For the compound CCOC(CC(=O)O)c1ccc(OCC2COc3ccc(Cl)cc3O2)cc1 (stereo not given) , is Emax under 70%?
Output line: YES

Input line: Problem: For the compound COCCOc1ccc2c(c1)OC(COc1ccc(CCC(=O)O)c(F)c1)CC2 (stereo not given) , is Emax under 70%?
Output line: YES

Input line: Problem: For the compound CC#C[C@@H](CC(=O)O)c1ccc(OC[C@H]2COc3ccc(OC(F)(F)F)cc3O2)cc1 , is Emax under 70%?
Output line: NO

Input line: Problem: For the compound CC#C[C@@H](CC(=O)O)c1ccc(OC[C@H]2COc3ccc(C(=O)N4CCOCC4)cc3O2)cc1 , is Emax under 70%?
Output line: YES

Input line: Problem: For the compound CC#CC(CC(=O)O)c1ccc(OCC2COc3ccc(Cl)cc3O2)cc1 (stereo not given) , is Emax under 70%?
Output line: NO

Input line: Problem: For the compound CC#C[C@@H](CC(=O)O)c1ccc(OC[C@H]2COc3c(Cl)cccc3O2)cc1 , is Emax under 70%?
Output line: NO

Input line: Problem: For the compound CC#C[C@H](CC(=O)O)c1ccc(OC[C@H]2COc3ccc(Cl)cc3O2)cc1 , is Emax under 70%?
Output line: YES

Input line: Problem: For the compound CC#C[C@@H](CC(=O)O)c1ccc(OC[C@H]2COc3cccc(Cl)c3O2)cc1 , is Emax under 70%?
Output line: NO
